target-system: NAD(P)H dehydrogenase [quinone] 1 (Mus musculus) (UniProt Q64669)
Sequence (Q64669 whole entry): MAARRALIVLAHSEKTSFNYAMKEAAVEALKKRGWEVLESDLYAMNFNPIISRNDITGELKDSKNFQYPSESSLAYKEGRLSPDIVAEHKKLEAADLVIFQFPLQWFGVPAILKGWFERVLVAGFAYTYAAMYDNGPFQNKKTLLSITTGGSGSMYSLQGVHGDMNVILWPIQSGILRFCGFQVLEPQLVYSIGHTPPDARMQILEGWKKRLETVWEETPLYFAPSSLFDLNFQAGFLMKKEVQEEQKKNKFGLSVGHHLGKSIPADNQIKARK
assay-method-text: Induction of quinone reductase activity in mouse Hepa1c1c7 cells assessed as maximum fold change at 50 uM incubated for 24 hrs by MTT based assay
Type: cell-based
conditions-used: filed as activator
Active and inactive are the calls of the source. The rule behind the calls is not given here.
recorded-endpoint: Activity

| compound | test-value |
| --- | --- |
| C=C[C@@]1(C)CC[C@]2(C)C3=C(CC[C@H]2C1)[C@](O)(CO)[C@@H](O)[C@H](Cl)C3 | Active |
| C=C[C@@]1(C)CC[C@@]2(C)[C@@H](CC[C@]34COC(=O)[C@@H]3C[C@H](O)C[C@H]24)C1 | Active |
| C=C[C@@]1(C)CC[C@]2(C)C3C[C@H]4C=C(CO)[C@]3(CC[C@H]2C1)C(OC)O4 (some centres undefined) | Active |
| C=C[C@@]1(C)CC[C@]2(C)C3C[C@H]4C=C(C=O)[C@]3(CC[C@H]2C1)C(O)O4 (some centres undefined) | Active |
